# target entity: PI3K (p110α) (Homo sapiens, UniProt P42336)
# Sequence (P42336 whole entry): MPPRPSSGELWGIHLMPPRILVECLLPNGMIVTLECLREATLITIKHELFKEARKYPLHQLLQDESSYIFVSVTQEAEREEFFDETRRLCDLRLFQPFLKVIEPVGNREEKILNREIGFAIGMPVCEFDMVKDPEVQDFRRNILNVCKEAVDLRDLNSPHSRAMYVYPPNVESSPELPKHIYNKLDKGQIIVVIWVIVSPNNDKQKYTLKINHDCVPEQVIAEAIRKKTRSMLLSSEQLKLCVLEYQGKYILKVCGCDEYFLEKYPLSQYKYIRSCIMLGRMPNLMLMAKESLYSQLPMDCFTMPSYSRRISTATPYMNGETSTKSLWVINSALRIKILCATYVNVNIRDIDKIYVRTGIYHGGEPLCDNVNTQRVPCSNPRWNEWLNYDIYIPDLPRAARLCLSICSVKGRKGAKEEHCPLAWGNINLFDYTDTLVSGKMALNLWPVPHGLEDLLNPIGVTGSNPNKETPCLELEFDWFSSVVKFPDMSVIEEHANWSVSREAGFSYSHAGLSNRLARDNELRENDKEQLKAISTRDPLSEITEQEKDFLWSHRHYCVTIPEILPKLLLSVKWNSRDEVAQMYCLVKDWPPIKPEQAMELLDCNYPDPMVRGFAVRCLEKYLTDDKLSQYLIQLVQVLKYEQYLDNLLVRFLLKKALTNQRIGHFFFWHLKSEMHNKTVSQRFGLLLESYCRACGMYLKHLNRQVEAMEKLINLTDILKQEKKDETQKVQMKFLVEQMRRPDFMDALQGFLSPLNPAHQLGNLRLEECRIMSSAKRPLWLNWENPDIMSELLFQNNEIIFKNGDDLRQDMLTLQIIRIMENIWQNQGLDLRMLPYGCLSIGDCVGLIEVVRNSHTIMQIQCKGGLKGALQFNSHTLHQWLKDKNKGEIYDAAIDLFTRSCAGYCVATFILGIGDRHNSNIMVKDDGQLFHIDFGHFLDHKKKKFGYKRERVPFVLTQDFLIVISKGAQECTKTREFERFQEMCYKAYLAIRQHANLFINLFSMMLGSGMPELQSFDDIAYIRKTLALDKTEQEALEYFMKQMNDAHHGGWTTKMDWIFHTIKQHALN
# Sequence (P27986 whole entry partner): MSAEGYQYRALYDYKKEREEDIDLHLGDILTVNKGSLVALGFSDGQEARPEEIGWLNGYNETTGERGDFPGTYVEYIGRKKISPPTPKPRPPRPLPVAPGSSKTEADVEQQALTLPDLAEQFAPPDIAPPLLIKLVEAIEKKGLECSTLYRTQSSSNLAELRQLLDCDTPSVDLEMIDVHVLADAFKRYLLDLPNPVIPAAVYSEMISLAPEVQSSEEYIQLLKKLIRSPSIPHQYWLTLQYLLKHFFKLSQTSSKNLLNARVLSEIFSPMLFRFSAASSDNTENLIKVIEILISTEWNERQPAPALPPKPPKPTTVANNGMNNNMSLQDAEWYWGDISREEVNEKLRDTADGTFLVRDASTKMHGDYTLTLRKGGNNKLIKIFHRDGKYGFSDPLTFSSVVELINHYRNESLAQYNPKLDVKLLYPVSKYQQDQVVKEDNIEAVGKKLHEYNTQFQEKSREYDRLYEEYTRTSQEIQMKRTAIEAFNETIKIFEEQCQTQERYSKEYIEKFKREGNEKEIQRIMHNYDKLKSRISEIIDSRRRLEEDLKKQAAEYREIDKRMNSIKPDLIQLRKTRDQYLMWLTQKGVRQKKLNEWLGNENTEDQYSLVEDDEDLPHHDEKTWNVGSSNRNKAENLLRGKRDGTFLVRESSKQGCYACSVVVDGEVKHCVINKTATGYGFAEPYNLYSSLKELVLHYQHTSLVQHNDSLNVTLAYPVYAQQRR
# protocol details: In vitro enzyme activity assay, PI3K (p110α) kinase, Method II (ADP-Glo assay)
# Assay type: biochemical
# Parameters: purchased Millipore 14-602-K
# measurement conditions: read-out: PI3K (p110α) enzyme activity_IC50
Item-by-item account of IC50

smiles_entry=COc1ncc(-c2ccc3ncc(OCC(C)(C)N4CCOCC4)c(=O)n3c2)cc1NS(=O)(=O)c1ccc(F)cc1Cl measurement_name=IC50 result="1 to 50 nM"
smiles_entry=COc1ncc(-c2ccc3ncc(OCCN4CCC(O)CC4)c(=O)n3c2)cc1NS(=O)(=O)c1ccc(F)cc1Cl measurement_name=IC50 result="≤ 1 nM"
smiles_entry=COc1ncc(-c2ccc3ncc(OC4CCN(C)CC4)c(=O)n3c2)cc1NS(=O)(=O)c1ccc(F)cc1Cl measurement_name=IC50 result="1 to 50 nM"

Turning now to a further record.
Request: Notebook entry, PI3K (p110α) (Homo sapiens, UniProt P42336) assay: IC50 of COc1ncc(-c2ccc3ncc(OCCN4CCS(=O)(=O)CC4)c(=O)n3c2)cc1NS(=O)(=O)c1sc(C)nc1C = ?
Result: ≤ 1 nM

---

# target entity: UniProt:P42336
# protocol details: In vitro enzyme activity assay, PI3K (p110α) kinase, Method II (ADP-Glo assay)
# Type: biochemical
# Set-up: purchased Millipore 14-602-K
# measurement conditions: read-out: PI3K (p110α) enzyme activity_IC50
pIC50: −log10 of the molar value.
measurement name: pIC50

Some molecules with recorded pIC50:
molecule="COc1ncc(-c2ccc3ncc(OCCN4CC5CC4CN5C)c(=O)n3c2)cc1NS(=O)(=O)c1sc(C)nc1C (stereo not shown)" target_entity=UniProt:P42336 result="≥ 9.00"
molecule="COc1ncc(-c2ccc3ncc(OCC(C)N4CCOCC4)c(=O)n3c2)cc1NS(=O)(=O)c1ccc(F)cc1Cl (stereo not shown)" target_entity=UniProt:P42336 result="7.30 to 9.00"
molecule="COc1ncc(-c2ccc3ncc(OCCN4CCOCC4C)c(=O)n3c2)cc1NS(=O)(=O)c1ccc(F)cc1Cl (stereo not shown)" target_entity=UniProt:P42336 result="≥ 9.00"
molecule="COc1ncc(-c2ccc3ncc(OCC4CC(F)(F)CN4)c(=O)n3c2)cc1NS(=O)(=O)c1ccc(F)cc1Cl (stereo not shown)" target_entity=UniProt:P42336 result="7.30 to 9.00"
molecule=COc1ncc(-c2ccc3ncc(OCC4(N)CC4)c(=O)n3c2)cc1NS(=O)(=O)c1ccc(F)cc1Cl target_entity=UniProt:P42336 result="≥ 9.00"

Request: May I ask what pIC50 has been recorded for COc1ncc(-c2ccc3ncc(OCCNCCO)c(=O)n3c2)cc1NS(=O)(=O)c1ccc(F)cc1Cl ?
Result: ≥ 9.00

Request: Likewise for COc1ncc(-c2ccc3ncc(OCC4CCCN4)c(=O)n3c2)cc1NS(=O)(=O)c1sc(C)nc1C (stereo not shown) ?
Result: ≥ 9.00

---

# pIC50 per entry
# System: MCF-7 cells
# protocol details: In vitro cell activity assay (MCF-7, insulin stimulation, ELISA-One)
# Type: cell-based
# measurement conditions: Homo sapiens, MCF7, compound 2 hours in serum-free media, then 10 μg/ml insulin 30 min
pIC50: −log10 of the molar value.

These recorded examples may help you get a feel for the data.
compound=COc1ncc(-c2ccc3ncc(OCCN4CCOCC4)c(=O)n3c2)cc1NS(=O)(=O)c1sc(C)nc1C target_entity="MCF-7 cells" result="≥ 7.30"
compound="COc1ncc(-c2ccc3ncc(OCC4CCCN4)c(=O)n3c2)cc1NS(=O)(=O)c1sc(C)nc1C (stereo not drawn)" target_entity="MCF-7 cells" result="< 6.60"
compound=COc1ncc(-c2ccc3ncc(OCCN4CCNC(=O)C4)c(=O)n3c2)cc1NS(=O)(=O)c1ccc(F)cc1Cl target_entity="MCF-7 cells" result="< 6.60"
compound=COc1ncc(-c2ccc3ncc(OCCN4CCOCC4)c(=O)n3c2)cc1NS(=O)(=O)c1sc(N)nc1C target_entity="MCF-7 cells" result="6.60 to 7.00"
compound=COc1ncc(-c2ccc3ncc(OCCN4CCN(C(C)=O)CC4)c(=O)n3c2)cc1NS(=O)(=O)c1ccc(F)cc1Cl target_entity="MCF-7 cells" result="7.00 to 7.30"

Now take the following compound into account.
Request: Give the measured pIC50 of COc1ncc(-c2ccc3ncc(OCCN4CCNCC4)c(=O)n3c2)cc1NS(=O)(=O)c1sc(C)nc1C .
Result: < 6.60

Values were extracted from patent US9856256B2.
